system: MOLT-4 leukemia; experiment: NCI tumour cell line growth inhibition, 384-well format; in the data active = GI50 below about 0.43 µM; inactive = the rest
Just give me one of these, please: active, inactive

Solved cases (3 shown):
compound	assigned_class
Cn1cc(C[C@@H](N)C(=O)O)c2ccccc21	inactive
Cc1cc(-c2nc(-c3ccc(OC(F)(F)F)cc3)no2)nn1Cc1ccnc(N2CCN(C3CC3)CC2)c1	active
C=CCN(/C=C1\C(=O)O[C@H](COC)[C@@]2(C)C1=C(O)C(=O)C1=C2[C@H](OC(C)=O)C[C@]2(C)C(=O)CC[C@@H]12)CC=C	active

Okay, now this compound:
Prompt line: I would be grateful if you could indicate the recorded call for CNC(C)C(=O)N[C@H](C(=O)N1CCC[C@@H]1CN(CCc1ccccc1)C(=O)C(F)(F)F)[C@H](C)OCC#CC#CCO[C@H](C)[C@H](NC(=O)[C@H](C)NC)C(=O)N1CCC[C@H]1CN(CCc1ccccc1)C(=O)C(F)(F)F (some centres undefined) .
Response line: inactive
